- assay protocol: chemical genetic growth profiling, strain panel (AID 1159580);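 also: tested at 20 µM; growth read once vehicle control cultures reached saturation at 30 °C; 1 = growth at the plate median or of vehicle wells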
- condition parameters: S. cerevisiae deletion strains, growth OD, locus YDL108W, strain KIN28
Out of some 5,500 compounds screened, about 2,000 (36%) were called active. Another 18% or so got no clear call; they are omitted. Rule as the data show it: active = normalized growth mostly below about 0.91 (no sharp cut-off); inconclusive = no clear call, values can overlap the other calls; inactive = mostly above about 0.92. The list shows a part of the results.
Hello, when you answer, please use one of the following outcomes: active, inactive

As a guide, the following entries are already answered.
- molecule: "Fc1ccc(N/N=C\\Cc2nnnn2-c2ccccc2)c(F)c1"
  cat: "inactive"
- molecule: "Cc1cc(C(=O)O/N=C(/N)CSc2ncccc2C(F)(F)F)no1"
  cat: "inactive"
- molecule: "C#Cc1cccc(N=Cc2cc(Cl)cc(Br)c2O)c1"
  cat: "active"

Could you check what this test reported for `Cc1ccc(C(=O)O/N=C(/N)CSc2ncccc2C(F)(F)F)cc1` ? inactive

Kindly provide the recorded test outcome for the following molecule: `Clc1ccccc1N/N=C\Cc1nnnn1-c1ccccc1` inactive

Which outcome did this test record for the molecule `CC(C)CSc1nnc(CSCc2nc(-c3ccc(Cl)cc3)cs2)n1C` ? inactive

Hi team, can someone confirm the assay call for `Cc1csc2ncnc(N/N=C\c3ccccc3Cl)c12` ? inactive

What classification did `O=C(CSCc1nc(-c2ccc(Cl)cc2)cs1)N/N=C\c1cccs1` end up with in this test? inactive

Could you check what this test reported for `N/C(CSc1ncccc1C(F)(F)F)=N/OC(=O)Nc1cccc(Cl)c1` ? inactive

// param item: `O=C(NNC(=O)c1csc(-c2cccs2)n1)c1ccc(C(F)(F)F)cc1` ; yields the recorded call inactive

Can you look up the reported call for CC(O)(CNCc1ccc(Cl)cc1)CSc1ccccc1Cl (stereo unspecified) for me? inactive

---

- assay protocol: chemical genetic growth profiling, strain panel (AID 1159580)
- condition parameters: S. cerevisiae deletion strains, growth OD, locus YMR223W, strain ubp8, stronger effect = lower value
The campaign covered roughly 5,500 compounds. About 2,000 (36%) were called active. About 18% were inconclusive and are not listed. Some of the results follow.
Flag rule - normalized growth less than 1 flags MET; the remaining entries get NOT MET.

Recorded results for 3 compounds are shown here.
- compound: "O=c1c(-c2ccc(O)cc2)coc2cc(O)cc(O)c12"
  cat: "NOT MET"
- compound: "COc1cccc(-c2cc(=O)c3cc(OC)ccc3o2)c1"
  cat: "NOT MET"
- compound: "C=CCCCCCCCCCCCC(O)CC(O)CO (stereo not drawn)"
  cat: "MET"

Hi there! Is normalized growth for C=CCCCCCCCCCCCC(O)CC(O)CO (stereo not drawn) (tested in a mixture with another compound) below 1, do you know? MET

Just wondering, is normalized growth of `COC(=O)C1=C(C)NC(C)=C(C(=O)OC)C1c1ccccc1[N+](=O)[O-]` below 1? MET

Please determine if `CCCCCCCCCc1ccc(O)cc1` is below 1 in terms of normalized growth. MET

Bench note: check whether `CCCCC1C(=O)N(c2ccccc2)N(c2ccccc2)C1=O` shows normalized growth below 1 MET

Decide: normalized growth of `N[C@@H]1CONC1=O` strictly below 1? NOT MET

I'd appreciate it if you could check whether `COc1ccc2c(=O)cc(-c3ccccc3OC)oc2c1` has normalized growth smaller than 1. MET

Confirm or reject: normalized growth of `O=c1c(-c2ccccc2)coc2cc(O)cc(O)c12` lies strictly below 1 MET

Say whether its normalized growth is strictly beneath 1. Entry: `Cc1cc(=O)c2c(O)c3c(cc2o1)OC(C)(C)CC3` MET

---

- assay protocol: chemical genetic growth profiling, strain panel (AID 1159580)
- condition parameters: S. cerevisiae deletion strains, growth OD, locus YOR069W, strain VPS5, stronger effect = lower value
Screen size: about 5,500 compounds; about 2,000 (36%) were called active. Roughly 18% stayed inconclusive and do not appear here. The list shows a part of the results.
property name: normalized growth
Lab note: write the figure by itself, no unit.

- molecule: "C=C1C2CC[C@@]3(C)[C@H](c4ccoc4)OC(=O)C[C@]13O[C@H]1CC(=O)C(C)(C)[C@H](C(O)C(=O)OC)[C@@]21C (stereo partly drawn)"
  normalized growth: 1.01
- molecule: "CC(=O)O.CC(=O)O.[Cd]"
  normalized growth: 0.222
- molecule: "COC(=O)C1=C(C)NC(C)=C(C(=O)OCCN(C)Cc2ccccc2)C1c1cccc([N+](=O)[O-])c1 (stereo not drawn)"
  normalized growth: 1.01
- molecule: "O=c1c2ccccc2[se]n1-c1ccccc1"
  normalized growth: 0.0489

// returns reported normalized growth for input `O=C1CC[C@]23C=CC(=O)NCCCCNCCCNC(=O)/C=C/c4ccc(c2c4)O[C@@H]3C1` 1

Return reported normalized growth; argument: `Cc1cc(=O)c2c(o1)-c1c(cc(O)c(O)c1C(=O)O)OC2` 1

Recorded normalized growth for `O=C1CCc2cc(OCCCCc3nnnn3C3CCCCC3)ccc2N1` , please? 1

Please report the recorded normalized growth for `CC(=O)Nc1ccc(OC(=O)c2ccccc2O)cc1` . 0.985

What value of measured normalized growth is listed for `O=C1c2c(O)ccc(O)c2C(=O)c2c(NCCNCCO)ccc(NCCNCCO)c21` ? 1.02

---

- assay protocol: chemical genetic growth profiling, strain panel (AID 1159580);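 also: tested at 20 µM; growth read once vehicle control cultures reached saturation at 30 °C; 1 = growth at the plate median or of vehicle wells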
- condition parameters: S. cerevisiae deletion strains, growth OD, locus YNL248C, strain rpa49, stronger effect = lower value
Among all 5,500 compounds or so, about 2,000 (36%) were called active. Not shown: some 18% with an inconclusive outcome. The list shows a part of the results.
Listed here: items and their measured normalized growth.

Would you please look over these solved cases?
- molecule: "CC(=O)O[C@H]1C[C@H](O[C@H]2[C@@H](O)C[C@H](O[C@H]3[C@@H](O)C[C@H](O[C@H]4CC[C@@]5(C)C(CCC6C5C[C@@H](O)[C@]5(C)[C@@H](C7=CC(=O)OC7)CC[C@]65O)C4)O[C@@H]3C)O[C@@H]2C)O[C@H](C)[C@H]1O[C@@H]1O[C@H](CO)[C@@H](O)[C@H](O)[C@H]1O (stereo not given in full)"
  property name: "normalized growth"
  result: "0.998 (inactive)"
- molecule: "C[C@@H]1CC[C@@]2(OC1)OC1C(O)C3C4CC[C@H]5C[C@H](O[C@@H]6O[C@H](CO)[C@H](O[C@@H]7O[C@H](CO)[C@@H](O)[C@H](O[C@@H]8OC[C@@H](O)[C@H](O)[C@H]8O)[C@H]7O[C@@H]7O[C@H](CO)[C@H](O)[C@H](O[C@@H]8O[C@H](CO)[C@@H](O)[C@H](O)[C@H]8O)[C@H]7O)[C@H](O)[C@H]6O)[C@H](O)C[C@]5(C)C4CC[C@]3(C)C1[C@@H]2C (stereo not given in full)"
  property name: "normalized growth"
  result: "1.02 (inactive)"
- molecule: "CN(C)CC/C=C1/c2ccccc2COc2ccccc21"
  property name: "normalized growth"
  result: "1.01 (inactive)"

Field request: normalized growth | item: `CN(C)CCC=C1c2ccccc2C=Cc2ccccc21` 0.959 (inactive)

Suppose we examine the molecule `CN(C)CCC=C1c2ccccc2CCc2ccccc21` ; what normalized growth value has been reported? 0.915 (inactive)

---

- assay protocol: chemical genetic growth profiling, strain panel (AID 1159580);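 also: tested at 20 µM; growth read once vehicle control cultures reached saturation at 30 °C; 1 = growth at the plate median or of vehicle wells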
- condition parameters: S. cerevisiae deletion strains, growth OD, locus YCL016C, strain dcc1, stronger effect = lower value
The campaign covered roughly 5,500 compounds. About 2,000 (36%) were called active. Another 18% or so got no clear call; they are omitted. The list shows a part of the results.
Mark yes only when normalized growth stays strictly below 1. Values equal to the cut-off are no.

Worked set:
- molecule: "CC(=O)Oc1c(-c2ccccc2)oc2c(CC=C(C)C)c3c(c(OC(C)=O)c2c1=O)C=CC(C)(C)O3"
  cat: "no"
- molecule: "CC(=O)O[C@H]1C[C@@]2(C)[C@H](c3ccoc3)OC(=O)[C@H]3O[C@]32[C@@]2(C)C1[C@]1(C)C(C[C@H]2OC(C)=O)C(C)(C)[C@H](OC(C)=O)C[C@@H]1OC(C)=O (stereo not given in full)"
  cat: "no"
- molecule: "O=c1cc(-c2ccc(O)c(O)c2)oc2ccccc12"
  cat: "yes"
- molecule: "COc1ccc(-c2cc(=O)c3ccccc3o2)cc1OC"
  cat: "yes"
- molecule: "CC1=C2C(=CO[C@H](C)[C@H]2C)C(=O)C(C(=O)O)=C1O"
  cat: "yes"
- molecule: "O=C1CC[C@]23C=CC(=O)NCCCCNCCCNC(=O)/C=C/c4ccc(c2c4)O[C@@H]3C1"
  cat: "no"

normalized growth strictly < 1 for this molecule? `COc1ccc(-c2cc(=O)c3cc(OC)ccc3o2)cc1` yes

Given `COc1ccc(-c2cc(=O)c3c(OC)c(OC)c(OC)c(OC)c3o2)cc1` , is recorded normalized growth strictly lower than 1? yes

---

Reported normalized growth values are given for each entry in this list.
- assay protocol: chemical genetic growth profiling, strain panel (AID 1159580);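 also: tested at 20 µM; growth read once vehicle control cultures reached saturation at 30 °C; 1 = growth at the plate median or of vehicle wells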
- condition parameters: S. cerevisiae deletion strains, growth OD, locus YDR069C, strain doa4, stronger effect = lower value
The whole screen tested about 5,500 compounds, of which about 2,000 (36%) were called active. Inconclusive results (about 18%) are left out. This is one part of the list.
Just the number, please.

// below: answered compounds
- compound: "COC(=O)C1=C(C)NC(C)=C(C(=O)OCCN(C)Cc2ccccc2)C1c1cccc([N+](=O)[O-])c1 (centres undefined)"
  normalized growth: 0.977
- compound: "COc1c(O)cccc1O"
  normalized growth: 1.02
- compound: "O=C(O)c1nc2cc(Cl)c(Cl)cc2[nH]c1=O"
  normalized growth: 1.04

Fill in the blank: the reported normalized growth of `C/C(=C\C(=O)OCCCCCCCCC(=O)O)C[C@@H]1OC[C@H](C[C@@H]2O[C@H]2[C@@H](C)[C@H](C)O)[C@@H](O)[C@H]1O` is ____. 0.982

So what's the measured normalized growth for this one? CCCCOc1cc(CC2CNC(=O)N2)ccc1OC (centres undefined) 1.01

Please give the measured normalized growth for this compound: C[C@@H]1CC[C@@]2(OC1)OC1C(O)C3C4CC[C@H]5C[C@H](O[C@@H]6O[C@H](CO)[C@H](O[C@@H]7O[C@H](CO)[C@@H](O)[C@H](O[C@@H]8OC[C@@H](O)[C@H](O)[C@H]8O)[C@H]7O[C@@H]7O[C@H](CO)[C@H](O)[C@H](O[C@@H]8O[C@H](CO)[C@@H](O)[C@H](O)[C@H]8O)[C@H]7O)[C@H](O)[C@H]6O)[C@H](O)C[C@]5(C)C4CC[C@]3(C)C1[C@@H]2C (some centres undefined) 1.03

Which normalized growth reading was recorded for the compound `CCN1CCN(c2cc3c(cc2F)c(=O)c(C(=O)O)cn3C2CC2)CC1` ? 1

Which normalized growth reading was recorded for the compound `O=C(O)c1cc(=O)c2ccccc2o1` ? 0.966
